Values from PubChem BioAssay AID1851

Target: Cytochrome P450 2D6 (Homo sapiens) (UniProt P10635)
Sequence (P10635 whole entry, looked up): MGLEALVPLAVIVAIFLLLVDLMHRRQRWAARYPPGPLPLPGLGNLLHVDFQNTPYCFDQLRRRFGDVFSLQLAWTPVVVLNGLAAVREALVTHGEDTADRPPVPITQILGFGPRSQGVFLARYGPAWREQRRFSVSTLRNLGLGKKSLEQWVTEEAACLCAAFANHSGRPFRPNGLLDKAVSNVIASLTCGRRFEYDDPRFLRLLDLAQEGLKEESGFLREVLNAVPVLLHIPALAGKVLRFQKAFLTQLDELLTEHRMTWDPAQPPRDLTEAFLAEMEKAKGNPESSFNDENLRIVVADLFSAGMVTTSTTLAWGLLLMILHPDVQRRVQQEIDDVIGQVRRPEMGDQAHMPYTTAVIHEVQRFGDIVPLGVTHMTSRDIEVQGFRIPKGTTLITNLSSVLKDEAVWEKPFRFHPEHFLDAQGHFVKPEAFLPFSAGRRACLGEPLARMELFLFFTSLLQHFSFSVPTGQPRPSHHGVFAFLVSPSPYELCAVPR
Experiment: Cytochrome panel assay with activity outcomes
Details: recombinant CYP, pro-luciferin dealkylation, luminescence, p450-cyp2d6; series mostly up to 57.1 µM
Method: The P450 gene superfamily is involved in the metabolism and clearance of xenobiotics. This assay used various human CYP P450 isozymes to measure the dealkylation of various pro-luciferin substrates to luciferin. The luciferin is then measured by luminescence after the addition of a luciferase detection reagent. […] Inhibitors and some substrates limit the production of luciferin, and decrease measured luminescence. […] 8, Detection, 1 sec, ViewLux luminescent read […]
In all, about 16,000 compounds went through this assay and about 2,600 (16%) were called active. Not shown: some 20% with an inconclusive outcome. The call rests on the fitted dose curve; in most records, active means well fitted curve in the direction sought with a large enough effect; inconclusive means small, poorly fitted or top-dose-only effect, or effect the other way; inactive means no such curve, though single readings can be large or run the other way. Only a sample is shown.
Your response should consist of one outcome taken from True = active, False = inactive

Illustrative cases are given below, each with its answer.
1) CCC[C@H]1C[C@H](C(=O)N[C@H]([C@@H]2O[C@H](SC)[C@@H](O)[C@H](O)[C@@H]2O)[C@H](C)O)N(C)C1 | False
2) O=C(Oc1ccccc1[N+](=O)[O-])c1cccnc1 | False

In this assay, the call recorded for `C/C(N)=C(/C#N)C(=O)CSc1nnc(COc2cc(C)ccc2C)o1` was what?
False

Which outcome did this test record for the molecule `Cc1ccccc1-c1cncnc1NC1CCNCC1` ?
True

What was the test verdict on `Cc1ccc(C(=O)COC(=O)CNC(=O)Cc2ccccc2)cc1[N+](=O)[O-]` ?
False

Kindly provide the recorded test outcome for the following molecule: `Cn1c(=O)[nH]c2ncn(C)c2c1=O`
False

Recorded test outcome, item `COc1ccc(-c2nc3cnc(N4CCN(C)CC4)nc3n(Cc3cccs3)c2=O)cc1`
False

Dear all, I need the recorded test outcome for `O=c1c(-c2ccc(F)c(F)c2)nc2cncnc2n1C1CC1` , thank you.
False

Query: recorded result category for `CSc1nc(N)c2ncn([C@@H]3O[C@@H](COP(=O)(O)OP(=O)(O)O)[C@@H](O)[C@H]3O)c2n1` in this test
False
